Tested on: H3K27 methylation in G401 cell
experimentalProtocol: ELISA (H3K27 methylation) assay in G401 cells
Format: cell-based, human
conditionInfo: Homo sapiens, G-401, H3K27 methylation ELISA, read-out: (c) IC50 ELISA Qualified
Description: Compounds of the present invention were assessed for their ability to inhibit PRC2 activity in a pentameric complex of EZH2, SUZ12, EED, Rbap48 and AEBP in biochemical assays. The ability of compounds of the present invention to inhibit cellular activity of PRC2 was assessed by analysing histone H3 lysine 27 methylation in human cell lines. […]
propertyName: IC50 (nM)
Supply the numeric figure in nM, leaving out any unit text.

The cases that follow already have their IC50 on record.
# structureString, systemName, IC50, nM
data = [
    ("COc1cccc(F)c1CNc1ccc(-c2ccnc(C(F)(F)F)c2)c2nncn12", "H3K27 methylation in G401 cell", 14.7),
    ("COc1cccc(F)c1CNc1ccc(-c2cn(C)nc2CO)c2nncn12", "H3K27 methylation in G401 cell", 24),
]

I'd like to know its IC50. The molecule in question is COc1cccc(F)c1CNc1ccc(-c2cncc(F)c2C)c2nncn12 26.7

I'd like to know its IC50. The molecule in question is COc1cccc(F)c1CNc1ccc(-c2c(C)n[nH]c2C)c2nncn12 52.8

* * *

systemName: EED (1-441)-His protein (Homo sapiens)
Construct: 30 nM EED (1-441)-His protein
Sequence (O75530 whole entry): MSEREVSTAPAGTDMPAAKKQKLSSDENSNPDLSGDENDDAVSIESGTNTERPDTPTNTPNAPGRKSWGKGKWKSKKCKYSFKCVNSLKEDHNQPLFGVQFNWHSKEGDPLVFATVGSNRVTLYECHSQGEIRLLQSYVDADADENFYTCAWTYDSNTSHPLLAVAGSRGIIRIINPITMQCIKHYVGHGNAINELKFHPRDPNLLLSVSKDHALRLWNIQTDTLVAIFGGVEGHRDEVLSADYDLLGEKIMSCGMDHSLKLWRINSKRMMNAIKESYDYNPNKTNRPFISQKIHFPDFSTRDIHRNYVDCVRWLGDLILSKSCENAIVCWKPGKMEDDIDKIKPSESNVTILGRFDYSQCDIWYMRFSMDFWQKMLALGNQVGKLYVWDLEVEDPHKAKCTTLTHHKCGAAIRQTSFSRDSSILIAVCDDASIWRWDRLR
experimentalProtocol: EED-H3K27Me3 peptide competition binding assay by AlphaScreen
conditionInfo: read-out: (a) IC50, EED Alphascreen binding Qualified
propertyName: IC50

# structureString, propertyName, measuredResult
data = [
    ("COc1ccccc1CNc1ccc(-c2ccc(NC(C)=O)cc2)c2nncn12", "IC50", "224 nM"),
    ("COc1cccc(F)c1CNc1ccc(-c2ccc(S(=O)(=O)N(C)C)cc2)c2nncn12", "IC50", "116 nM"),
    ("COc1cccc(F)c1CNc1ccc(-c2ccc(CN(C)C)cc2)c2nncn12", "IC50", "17.7 nM"),
]

I'd like to know its IC50. The molecule in question is COc1cc(F)ccc1CNc1ccc(-c2ccncc2)c2nncn12 138 nM

I'd like to know its IC50. The molecule in question is COc1c(F)cccc1CNc1ccc(-c2ccc(S(C)(=O)=O)nc2)c2nncn12 2880 nM

I'd like to know its IC50. The molecule in question is CN(C)Cc1ccc(-c2ccc(NCc3cccc(F)c3)n3cnnc23)cc1 2570 nM

I'd like to know its IC50. The molecule in question is COc1cc(F)ccc1CNc1ccc(-c2cnc(N3CCN(C(C)C)CC3)c(C(F)(F)F)c2)c2nncn12 410 nM

I'd like to know its IC50. The molecule in question is COc1cc(F)ccc1CNc1ccc(-c2ccc(S(N)(=O)=O)cc2)c2nncn12 132 nM

I'd like to know its IC50. The molecule in question is COc1cccc(F)c1CNc1ccc(-c2ccncc2)c2nncn12 38.7 nM

* * *

systemName: EED (1-441)-His protein (Homo sapiens)
Construct: 30 nM EED (1-441)-His protein
experimentalProtocol: EED-H3K27Me3 peptide competition binding assay by AlphaScreen
conditionInfo: EED-H3K27Me3 peptide competition, AlphaScreen; read-out: (a) IC50 EED Alphascreen binding Qualified
propertyName: IC50 (nM)
Supply the numeric figure in nM, leaving out any unit text.

I'd like to know its IC50. The compound in question is COc1cccc(F)c1CNc1ccc(-c2cn(C)nc2C(F)F)c2nncn12 3.4

I'd like to know its IC50. The compound in question is COc1ncccc1CNc1ccc(-c2cccnc2C)c2nncn12 73.5

I'd like to know its IC50. The compound in question is COc1cccc(F)c1CNc1ccc(-c2ccnc(CCO)c2)c2nncn12 35.9

I'd like to know its IC50. The compound in question is COc1c(F)ccc(F)c1CNc1ccc(-c2cnc(C)nc2C)c2nncn12 95.1

I'd like to know its IC50. The compound in question is COc1cccc(F)c1CNc1ccc(-c2cncc(C(=O)N(C)C)c2)c2nncn12 17.6

Measured values drawn from patent US10689378B2 for this set.
